protocol: [3H]Thymidine incorporation assay (cell toxicity)
condition_notes: human
experimental_endpoint: CC50 at 72 h

C[C@@H](C(=O)N(C)C)N(c1cc(C#CC(C)(C)C)sc1C(=O)O)C(=O)[C@H]1CC[C@H](C)CC1 : > 100 µM

For every item below, please supply its CC50 at 72 h.
1. CC(C)C#Cc1cc(N(CC(=O)N(C)C)C(=O)C2CCC(C)CC2)c(C(=O)O)s1 (stereo not shown)
2. CC(C(=O)N(C)C)N(c1cc(C#CC(C)(C)C)sc1C(=O)O)C(=O)[C@H]1CC[C@H](C)CC1 (relative stereo)
3. CC[C@@H](C(=O)N(C)C)N(c1cc(C#CC(C)C)sc1C(=O)O)C(=O)[C@H]1CC[C@H](C)CC1
4. C[C@H]1CC[C@H](C(=O)N(CC(=O)N2CCOCC2)c2cc(-c3ccccc3)sc2C(=O)O)CC1
5. CN(C)C(=O)CN(C(=O)c1ccc(Cl)cc1Cl)c1cc(C#CC(C)(C)C)sc1C(=O)O
6. C[C@@H](C(=O)NC1CCOC1)N(c1cc(C#CC(C)(C)C)sc1C(=O)O)C(=O)[C@H]1CC[C@H](C)CC1 (stereo partly shown)

["> 100 µM", "10 to 100 µM", "> 100 µM", "> 100 µM", "10 to 100 µM", "> 100 µM"]

====

protocol: [3H]Thymidine incorporation assay (cell toxicity)
condition_notes: human
experimental_endpoint: CC50 at 72 h

Here are 6 compounds together with their reported answers.
COCCN(C)C(=O)[C@H](C)N(c1cc(C#CC(C)(C)C)sc1C(=O)O)C(=O)[C@H]1CC[C@H](C)CC1 [Compound 38] : > 100 µM
CC1COCCN1C(=O)[C@H](C)N(c1cc(C#CC(C)(C)C)sc1C(=O)O)C(=O)[C@H]1CC[C@H](C)CC1 (stereo partly drawn) [Compound 47] : > 100 µM
CC[C@@H](C(=O)N(C)C1CCN(C)CC1)N(c1cc(C#CC(C)(C)C)sc1C(=O)O)C(=O)[C@H]1CC[C@H](C)CC1 [Compound 76] : 10 to 100 µM
COC(C)(C)C#Cc1cc(N(CC(=O)N2CCOCC2)C(=O)[C@H]2CC[C@H](C)CC2)c(C(=O)O)s1 [Compound 129] : > 100 µM
C[C@H]1CC[C@H](C(=O)N(CC(=O)N2CCOCC2)c2cc(C#CC3CC3)sc2C(=O)O)CC1 [Compound 128] : > 100 µM
CCC[C@@H](C(=O)N(C)C)N(c1cc(C#CC(C)(C)C)sc1C(=O)O)C(=O)[C@H]1CC[C@H](C)CC1 [Compound 68] : 10 to 100 µM

For every item below, please supply its CC50 at 72 h.
1. CN1CC(N(c2cc(C#CC(C)(C)C)sc2C(=O)O)C(=O)[C@H]2CC[C@H](C)CC2)CC1=O (relative stereo) [Compound 107]
2. CC1CCC(C(=O)N(CCC(=O)N2CCOCC2)c2cc(C#CC(C)(C)C)sc2C(=O)O)CC1 (stereo not drawn) [Compound 97]
3. CC[C@@H](C(=O)N1CC(OC)C1)N(c1cc(C#CC(C)(C)C)sc1C(=O)O)C(=O)[C@H]1CC[C@H](C)CC1 [Compound 79]
4. CC(C)(C)C#Cc1cc(N(CC(=O)N2CCOCC2)C(=O)c2ccc(Cl)cc2Cl)c(C(=O)O)s1 [Compound 124]
5. CCN1CCCC[C@H](N(C(=O)c2ccc(Cl)cc2Cl)c2cc(C#CC(C)(C)C)sc2C(=O)O)C1=O [Compound 135]
6. COC[C@@H](C(=O)N1CCOCC1)N(C(=O)C1CCC(C)CC1)c1cc(C#CC(C)(C)C)sc1C(=O)O (stereo partly drawn) [Compound 23]
7. C[C@@H](CC(=O)N(C)C)N(c1cc(C#CC(C)(C)C)sc1C(=O)O)C(=O)[C@H]1CC[C@H](C)CC1 [Compound 96]

> 100 µM
> 100 µM
> 100 µM
> 100 µM
> 100 µM
> 100 µM
10 to 100 µM
